System: Moser human colon
assay-overview: in vitro cytotoxicity assay, Moser human colon
Format: cell-based
condition-parameters: Homo sapiens, concentration required to inhibit cell growth by 50%, four-fold serial dilution; replicate determinations on separate lines
In plain terms, low IC50, meaning strictly below 20 µg/mL, gives TRUE, and everything else gives FALSE.

Would you kindly verify if IC50 of COc1cc([C@@H]2c3cc4c(cc3[C@@H](O[C@@H]3O[C@@H]5CO[C@@H](C)O[C@H]5[C@H](O)[C@H]3O)[C@H]3CN(N=Cc5ccc([N+](=O)[O-])cc5)C(=O)[C@H]23)OCO4)cc(OC)c1O [Example 6] is strictly less than 20 µg/mL? FALSE

Would you kindly verify if IC50 of COc1cc([C@@H]2c3cc4c(cc3[C@@H](O[C@@H]3O[C@@H]5CO[C@@H](C)O[C@H]5[C@H](O)[C@H]3O)[C@H]3CNC(=O)[C@H]23)OCO4)cc(OC)c1O [Example 5] is strictly less than 20 µg/mL? FALSE

Would you kindly verify if IC50 of COc1cc([C@@H]2c3cc4c(cc3[C@@H](O[C@@H]3O[C@@H]5CO[C@@H](C)O[C@H]5[C@H](O)[C@H]3O)[C@@H](CO)[C@@H]2C(N)=O)OCO4)cc(OC)c1O (relative stereo) [Example 2] is strictly less than 20 µg/mL? FALSE

Would you kindly verify if IC50 of CCCCCCCC(=O)Oc1c(OC)cc([C@@H]2c3cc4c(cc3[C@@H](O[C@@H]3O[C@@H]5CO[C@@H](C)O[C@H]5[C@H](O)[C@H]3O)[C@H]3CN(N=Cc5ccccc5)C(=O)[C@H]23)OCO4)cc1OC [Example 10] is strictly less than 20 µg/mL? FALSE

Would you kindly verify if IC50 of COc1cc([C@@H]2c3cc4c(cc3[C@@H](O[C@@H]3O[C@@H]5CO[C@@H](C)O[C@H]5[C@H](O)[C@H]3O)[C@H]3CN(N=Cc5ccccc5)C(=O)[C@H]23)OCO4)cc(OC)c1O [Example 3] is strictly less than 20 µg/mL? FALSE

Would you kindly verify if IC50 of CCCCCCCC=NN1C[C@H]2[C@H](C1=O)[C@H](c1cc(OC)c(O)c(OC)c1)c1cc3c(cc1[C@H]2O[C@@H]1O[C@@H]2CO[C@@H](C)O[C@H]2[C@H](O)[C@H]1O)OCO3 [Example 9] is strictly less than 20 µg/mL? TRUE

----------
System: Moser human colon
assay-overview: in vitro cytotoxicity assay, Moser human colon
Assay type: cell-based
condition-parameters: concentration required to inhibit cell growth by 50%, four-fold serial dilution; replicate determinations on separate lines
quantity: IC50 Moser (µg/mL)
Respond numerically; units are µg/mL and should not be typed.

Provide value of IC50 Moser for this record tested with Moser human colon: CCCCCCCC(=O)Oc1c(OC)cc([C@@H]2c3cc4c(cc3[C@@H](O[C@@H]3O[C@@H]5CO[C@@H](C)O[C@H]5[C@H](O)[C@H]3O)[C@H]3CN(N=Cc5ccccc5)C(=O)[C@H]23)OCO4)cc1OC 16.38

Provide value of IC50 Moser for this record tested with Moser human colon: COc1cc([C@@H]2c3cc4c(cc3[C@@H](O[C@@H]3O[C@@H]5CO[C@@H](C)O[C@H]5[C@H](O)[C@H]3O)[C@H]3CN(N=Cc5ccccc5)C(=O)[C@H]23)OCO4)cc(OC)c1O 73.81

Provide value of IC50 Moser for this record tested with Moser human colon: COc1cc([C@@H]2c3cc4c(cc3[C@@H](O[C@@H]3O[C@@H]5CO[C@@H](C)O[C@H]5[C@H](O)[C@H]3O)[C@H]3CNC(=O)[C@H]23)OCO4)cc(OC)c1O 102.51

Provide value of IC50 Moser for this record tested with Moser human colon: CCCCCCCC(=O)Oc1c(OC)cc([C@@H]2c3cc4c(cc3[C@@H](O[C@@H]3O[C@@H]5CO[C@@H](C)O[C@H]5[C@H](O)[C@H]3O)[C@H]3CNC(=O)[C@H]23)OCO4)cc1OC 25.92

Provide value of IC50 Moser for this record tested with Moser human colon: COc1cc([C@@H]2c3cc4c(cc3[C@@H](O[C@@H]3O[C@@H]5CO[C@@H](C)O[C@H]5[C@H](O)[C@H]3O)[C@@H](CO)[C@@H]2C(N)=O)OCO4)cc(OC)c1O (relative stereo) 115.67

The values you see were collected from patent US4958010A.
